- target_or_system: T1, UBXD1-PUB (150–264) Y181A (UniProt Q9BZV1 150-264, Y181A)
- T1 construct: UBXD1 PUB domain construct, residues 150-264, point mutant; source: E. coli Rosetta2, purified (Ni-NTA, thrombin cleavage of the tag, SEC); not shown: His6, N-terminal, cleaved
- T1 sequence (looked up): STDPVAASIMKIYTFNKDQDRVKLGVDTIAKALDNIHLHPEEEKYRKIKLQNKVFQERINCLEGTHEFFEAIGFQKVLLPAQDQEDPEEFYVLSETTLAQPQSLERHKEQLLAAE
- assay: fluorescence polarisation; fluorescence anisotropy; PUB constructs titrated to 100 nM 5,6-FAM labeled p97-C10 peptide; 50 mM NaKPi pH 6.5, 25 °C; triplicate; one-site quadratic fit
- experimental_parameters: both partners purified
No end group written: not given here.
assay_metric: Kd (µM)
One number for each entry, in µM.

Return value of Kd for input TEDNDDDLYG (also: 5,6-FAM label, position not given here, source: synthetic peptide, bought: Caslo ApS (Denmark)) [5,6-FAM-labeled p97-C10 peptide] , no commentary. 111
